Origin of measurements: the supplement of paper PMC8728848

target: Fuc(a1-3)[Gal(b1-4)]GlcNAc(b1-2)Man; experiment: glycan array binding signal (z-score within array); higher = stronger binding; settings: glycan notation: IUPAC condensed, linker removed
Only a selection was taken, and the strongest signals are over-represented in it overall.
Here, each record is paired with measured glycan array binding signal (z-score) data.
measured.property: glycan array binding signal (z-score)

binder	measured.property	experimental.result
Epa21 (Candida glabrata) (protein) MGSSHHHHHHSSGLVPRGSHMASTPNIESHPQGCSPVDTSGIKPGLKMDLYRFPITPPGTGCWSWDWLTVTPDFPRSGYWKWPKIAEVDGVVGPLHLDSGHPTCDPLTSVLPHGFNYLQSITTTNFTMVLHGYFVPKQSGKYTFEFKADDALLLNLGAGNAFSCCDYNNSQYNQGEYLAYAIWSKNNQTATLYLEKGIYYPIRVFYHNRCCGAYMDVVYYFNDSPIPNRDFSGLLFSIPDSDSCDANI	glycan array binding signal (z-score)	-0.558
Pwp3 (Candida glabrata) (protein) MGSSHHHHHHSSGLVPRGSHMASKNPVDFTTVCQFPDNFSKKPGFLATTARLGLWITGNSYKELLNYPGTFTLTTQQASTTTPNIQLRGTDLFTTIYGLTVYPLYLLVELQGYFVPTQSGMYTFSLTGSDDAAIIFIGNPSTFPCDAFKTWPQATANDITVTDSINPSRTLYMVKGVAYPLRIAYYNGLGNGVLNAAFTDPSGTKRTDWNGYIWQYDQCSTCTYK	glycan array binding signal (z-score)	-0.319
SJCP1531 (Schistosoma japonicum) (protein) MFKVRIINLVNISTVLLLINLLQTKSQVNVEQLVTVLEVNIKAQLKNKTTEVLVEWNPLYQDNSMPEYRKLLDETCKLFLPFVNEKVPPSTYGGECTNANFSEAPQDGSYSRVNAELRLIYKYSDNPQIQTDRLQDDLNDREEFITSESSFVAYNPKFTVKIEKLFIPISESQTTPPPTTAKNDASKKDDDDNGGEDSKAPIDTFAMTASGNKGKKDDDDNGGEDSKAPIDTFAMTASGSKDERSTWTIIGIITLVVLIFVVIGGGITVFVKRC	glycan array binding signal (z-score)	0.026
